Would you kindly list logP for each of these molecules?
# Assay Notes: Octanol-water partition coefficient, log P by reverse phase HPLC method
# Type: physicochemical
Give bare numbers.

smiles_entry=Cc1ccc2c(c1)c1c(n2CCc2ccc(C)nc2)CCN([11CH3])C1 readout_label=logP experimental_value=2.53

Let's switch to this molecule now.
Challenge: For the molecule shown here, CC(=O)N(Cc1ccccc1O[11CH3])c1cnccc1Oc1ccccc1 , give the reported logP.
Response given: 2.21
